target: T315I (Ba/F3) (Homo sapiens, UniProt P00519, T315I, cells depend on it); construct: fused on or other part: P11274 (Breakpoint cluster region protein); test: Cancer cell proliferation inhibition, CCK-8, 72 hours; format: cell-based; conditions: read-out: T315I (Ba/F3) IC50
Threshold 100 nM: GI50 strictly smaller gives true (1), otherwise false (0).

Request: GI50 strictly < 100 nM for this molecule? CN1CCN(Cc2ccc(NC(=O)c3ccc(F)c(C#Cc4cnc5c(Nc6cnn(C)c6)cccn45)c3)cc2C(F)(F)F)CC1
Result: true (1)

Request: Please indicate whether the reported GI50 of Cc1cc(Nc2cccn3c(C#Cc4cc(C(=O)Nc5ccc(CN6CCC(N(C)C)C6)c(C(F)(F)F)c5)ccc4C)cnc23)no1 (stereo not drawn) is strictly below 100 nM.
Result: false (0)

Request: Here's an entry: COCCn1cc(Nc2cccn3c(C#Cc4cc(C(=O)Nc5ccc(CN6CCN(C)[C@H](C)C6)c(C(F)(F)F)c5)ccc4C)cnc23)cn1 . Is its GI50 below 100 nM?
Result: true (1)

Request: Report whether reported GI50 is lower than 100 nM (strictly) for Cc1ccc(C(=O)Nc2ccc(CN3CCCN(C)CC3)c(C(F)(F)F)c2)cc1C#Cc1cnc2c(Nc3cnn(CCCN(C)C)c3)cccn12
Result: false (0)

Request: # TODO verify GI50 < 100 nM strictly for this molecule: Cc1ccc(C(=O)Nc2ccc(CN3CCCN(C)CC3)c(C(F)(F)F)c2)cc1C#Cc1cnc2c(Nc3cnn(C(C)C)c3)cccn12
Result: false (0)

* * *

Provide the reported pKd of each item.
Keep it numeric: pKd is minus log10 of the concentration in mol/L.

Assay LOK (Homo sapiens), sample Cc1ccc(C(=O)Nc2ccc(CN3CCN(C)CC3)c(C(F)(F)F)c2)cc1C#Cc1cnc2c(Nc3cnn(C)c3)cccn12 , pKd read: 8.14

The measured pKd that Cc1ccc(NC(=O)C2(C(=O)Nc3ccc(F)cc3)CC2)cc1C#Cc1cnc2c(Nc3cnn(C(C)C)c3)cccn12 showed for LOK (Homo sapiens) is 7.43

* * *

Hi there, I'd appreciate the recorded pIC50 for every entry that follows.
system: MDA-MB-231; assay: Real time cell proliferation, IncuCyte ZOOM, 72 hours; type: cell-based; details: Homo sapiens, MDA-MB-231, 72 h
// field semantics: pIC50 = negative decimal log of concentration (mol/L)

Form field pIC50, entry Cc1cn(-c2cc(NC(=O)c3ccc(C)c(C#Cc4cnc5c(Nc6cnn(C)c6)cccn45)c3)cc(C(F)(F)F)c2)cn1 [Example 12] : 5.92

Notebook: CCn1cc(Nc2cccn3c(C#Cc4cc(C(=O)Nc5ccc(CN6CC[C@@H](N(C)C)C6)c(C(F)(F)F)c5)ccc4C)cnc23)cn1 [Example 53] , pIC50 read as 6.49

What the record says about Cc1ccc(C(=O)Nc2ccc(CN3CCC(N(C)C)C3)c(C(F)(F)F)c2)cc1C#Cc1cnc2c(Nc3cnn(C)c3)cccn12 (stereo not shown) [Example 32] : pIC50 is 6.34

Query COCCn1cc(Nc2cccn3c(C#Cc4cc(C(=O)Nc5cc(C(C)(C)C)on5)ccc4C)cnc23)cn1 [Example 59] yields pIC50 of 6.37

pIC50 reading for COCCCn1cc(Nc2cccn3c(C#Cc4cc(C(=O)Nc5ccc(CN6CCN(C)[C@@H](C)C6)c(C(F)(F)F)c5)ccc4C)cnc23)cn1 [Example 46] : 6.56

The molecule identified as Cc1ccc(NC(=O)c2ccc(CN3CCN(C)CC3)c(C(F)(F)F)c2)cc1C#Cc1cnc2c(Nc3cnn(C)c3)cccn12 [Example 80] registered its pIC50 at 6.49

get_value(item= Cc1ccc(Nc2cccn3c(C#Cc4cc(C(=O)Nc5ccc(CN6CCN(C)CC6)c(C(F)(F)F)c5)ccc4C)cnc23)cc1 [Example 24] , readout=pIC50) returns 5.44

Record summary for Cc1ccc(C(=O)Nc2ccc(CN3CCN(C)CC3)c(C(F)(F)F)c2)cc1C#Cc1cnc2c(Nc3ccc(C(F)(F)F)cc3)cccn12 [Example 19] : reported pIC50 = 5.50

Lookup result for Cc1ccc(C(=O)Nc2ccc(CN3CCN(C)CC3)c(C(F)(F)F)c2)cc1C#Cc1cnc2c(Nc3cc4n(n3)CCNC4)cccn12 [Example 66] ; measured pIC50: 6.41

The molecule identified as Cc1ccc(C(=O)Nc2ccc(CN3CCN(C)[C@H](C)C3)c(C(F)(F)F)c2)cc1C#Cc1cnc2c(Nc3cnn(C)c3)cccn12 [Example 31] registered its pIC50 at 6.67
